Recorded measurements of growth, one per entry
Test system: E. coli TESEC Mtb Asd
Assay: growth (OD600 after 10 h); higher = more growth (less inhibition)
Settings: arabinose induction (level): Low; compound 0.1 mM; raw OD600 reference: median of DMSO wells 0.417, cell-free background 0.041
Counter-ions that a name gives are not always drawn.
reportedEndpoint: growth

>  <compound>
C[N+]12CCC(CC1)C(OC(=O)C(O)(c1ccccc1)c1ccccc1)C2 (stereo not drawn) [Clidinium bromide]

>  <recordedNumber>
0.453

$$$$
>  <compound>
C[C@]12COC(=O)C[C@@H]1CC[C@@H]1[C@@H]2CC[C@@]2(C)[C@H]1CC[C@]2(C)O

>  <recordedNumber>
0.319

$$$$
>  <compound>
CCOC(=O)c1cncn1[C@H](C)c1ccccc1 [Etomidate]

>  <recordedNumber>
0.378

$$$$
>  <compound>
CC[C@@]1(O)C(=O)OCc2c1cc1n(c2=O)Cc2cc3ccccc3nc2-1 [Camptothecine (S,+)]

>  <recordedNumber>
0.43

$$$$
>  <compound>
CC(C)CC(N(C)C)C1(c2ccc(Cl)cc2)CCC1 (stereo not drawn) [Sibutramine HCl]

>  <recordedNumber>
0.37

$$$$
>  <compound>
CN1[C@@H]2CC[C@H]1C[C@@H](OC(=O)[C@H](CO)c1ccccc1)C2

>  <recordedNumber>
0.377

$$$$
>  <compound>
CN(C)[C@@H]1C(=O)C(C(N)=O)=C(O)[C@@]2(O)C(=O)C3=C(O)c4c(O)cccc4[C@@](C)(O)[C@H]3C[C@@H]12 [Tetracycline hydrochloride]

>  <recordedNumber>
0.0592

$$$$
>  <compound>
CCn1cc(C(=O)O)c(=O)c2cc3c(cc21)OCO3

>  <recordedNumber>
0.149

$$$$

====

Tested on: E. coli TESEC Mtb DapB
Assay: growth (OD600 after 10 h); higher = more growth (less inhibition)
Details: arabinose induction (level): High; compound 0.1 mM; raw OD600 reference: median of DMSO wells […], cell-free background 0.041
Counter-ions that a name gives are not always drawn.
reportedEndpoint: growth

>  <compound>
C=C1C[C@@H]2[C@H](CC[C@]3(C)C(=O)CC[C@@H]23)[C@@]2(C)C=CC(=O)C=C12

>  <result>
0.112

$$$$
>  <compound>
C[N+]1([O-])[C@@H]2C[C@@H](OC(=O)[C@H](CO)c3ccccc3)C[C@H]1[C@@H]1O[C@@H]12 (some centres not stated) [Scopolamin-N-oxide hydrobromide]

>  <result>
0.221

$$$$
>  <compound>
CCC1(C)CC(=O)NC(=O)C1 [Bemegride]

>  <result>
0.2

$$$$
>  <compound>
C[C@@H]1C[C@@H]([C@H](O)CC2CC(=O)NC(=O)C2)C(=O)[C@@H](C)C1 [Cycloheximide]

>  <result>
0.231

$$$$
>  <compound>
COc1cc([C@@H]2c3cc4c(cc3[C@H](O)[C@H]3COC(=O)[C@H]23)OCO4)cc(OC)c1OC

>  <result>
0.212

$$$$
>  <compound>
CC(NC(C)(C)C)C(=O)c1cccc(Cl)c1 (configuration not stated) [Bupropion hydrochloride]

>  <result>
0.202

$$$$
>  <compound>
C[C@]12CC[C@@H](O)C[C@H]1CC[C@@H]1[C@@H]2CC[C@]2(C)C(=O)CC[C@@H]12 [3-alpha-Hydroxy-5-beta-androstan-17-one]

>  <result>
0.122

$$$$
